Hi there, I'd appreciate the recorded apparent KD of MS2 coat protein for every entry that follows.
test system: MS2 coat protein; test: apparent KD of MS2 coat protein; higher = weaker reporter binding; conditions: Eterna round: R107; input ligand: arginine 13.2 mM
One number for each entry, in nM.

Worked set:
INPUT_SEQUENCE | MEASURE_UNIT | READOUT_VALUE
GGCGCUGCGUCGGCCGCCACUAGCGGGUAAUGGGUGUACAUGAGGAUCACCCAUGUAAUAUGGCCUAGGACCGGGACGUGGCGCC [Moose] | nM | 259
GAUGAACUAUAUGAUACCAGACAACAUGAGGAUCACCCAUGUGAAUGUCGUCCUCUGCCUGUCCCUUGGCAGCGUAUAGUUUAUC [XTheo B #15] | nM | 29.3

Consider the additional sequence presented here.
Qu. Would you kindly share the measured apparent KD of MS2 coat protein for GCUAGCCGAAAGGCUAGCAAGGCUACAGAAGGAGCGUGCGAAAGCACAGGUAGGUCGCUGAGCUUGAGGAUCACCCAAGUUGCCU [SSAA - Alter Amptam #1 V+V2] ?
Ans. 26.2
